assayedTarget: hHER3 full length (human, UniProt P21860 20-1342)
procedureSummary: cell-based or functional assay
recordedMetric: IC50, HRG1-β1 induced pAkt, MCF-7 (M)

1. 17C08 (VHH, also called 17C8) VHH: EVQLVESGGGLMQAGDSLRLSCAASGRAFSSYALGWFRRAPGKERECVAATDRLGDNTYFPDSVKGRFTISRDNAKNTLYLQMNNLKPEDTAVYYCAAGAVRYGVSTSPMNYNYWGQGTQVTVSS
2. 17E08 (VHH) VHH: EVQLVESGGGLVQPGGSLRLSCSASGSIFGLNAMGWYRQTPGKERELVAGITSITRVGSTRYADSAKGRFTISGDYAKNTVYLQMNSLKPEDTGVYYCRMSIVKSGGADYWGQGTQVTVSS
Exercise: Lab note: check whether 1 or 2 has the lower measured IC50, HRG1-β1 induced pAkt, MCF-7. Choose, then provide that item's label.
Key: 2
